Test system: SR
Experiment: NCI tumour cell line growth inhibition, 48 h
Calls of active or inactive are those of the source. No stated cut-off is given here; in the data, active = GI50 up to about 1.1 µM and inactive = higher.

- SMILES_TEXT: "CC#CCCN(CC#N)Cc1ccccc1"
  GI50: "> 100 µM (inactive)"
- SMILES_TEXT: "O=c1c(=O)c2c(Br)sc(Br)c2c1=O"
  GI50: "20.6 µM (inactive)"
- SMILES_TEXT: "COc1ccc(-c2cc(O)c3nc4ccccc4n3c2)cc1"
  GI50: "> 100 µM (inactive)"
- SMILES_TEXT: "C=CCCc1cc(OC)ccc1CN(C)C(C)(C)CO"
  GI50: "> 100 µM (inactive)"
- SMILES_TEXT: "CN1CCC(CN2c3ccccc3Sc3ccccc32)CC1"
  GI50: "14.1 µM (inactive)"
- SMILES_TEXT: "CS/C(C)=N/OC(=O)NCCCCNc1ccc(N=[N+]=[N-])cc1"
  GI50: "37.8 µM (inactive)"
- SMILES_TEXT: "C[n+]1cccc2ccc3cccnc3c21"
  GI50: "> 100 µM (inactive)"
- SMILES_TEXT: "O=c1c2cccc3cccc(c4n1CCCN=4)c32"
  GI50: "31.3 µM (inactive)"
- SMILES_TEXT: "Cc1ccc(-c2nnc(-c3ccc4ccccc4c3)o2)cc1"
  GI50: "7.36 µM (inactive)"

---

Tested on: COLO 205
Assay: NCI tumour cell line growth inhibition, 48 h
The source made the active and inactive calls. No stated cut-off is given here; in the data, active = GI50 up to about 1.1 µM and inactive = higher.
Outcomes: active, inactive

- COMPOUND: "O=C(O)c1cc(O)c2c(c1)Cc1cccc(O)c1C2=O"
  CLASS: "inactive"
- COMPOUND: "Nc1cc2[nH]c(=O)c3cc(Cl)ccc3c2cc1Cl"
  CLASS: "inactive"
- COMPOUND: "N=C(N)c1ccc(/N=N\\c2c(O)c(C(=O)Nc3ccccc3)cc3ccccc23)cc1"
  CLASS: "inactive"
- COMPOUND: "O/N=C(/C(Cl)=C(Cl)Cl)C(Cl)Cl"
  CLASS: "inactive"
- COMPOUND: "COc1ccc([C@@H]2CC(=O)N2)cc1"
  CLASS: "inactive"
- COMPOUND: "C=CC(Br)(CBr)CCC(Br)C(C)(C)Cl (centres undefined)"
  CLASS: "inactive"
- COMPOUND: "CC[C@H](C)C(=O)O[C@H]1CCC=C2C=C[C@H](C)[C@H](CC[C@@H]3C[C@@H](O)CC(=O)O3)[C@H]21"
  CLASS: "inactive"
- COMPOUND: "CCCCCCCCCCCCCCCC(=O)Nc1ccn(C2CC(OP(=O)(O)OCC3OC(n4cc(F)c(=O)[nH]c4=O)CC3OC(C)=O)C(CO)O2)c(=O)n1 (centres undefined)"
  CLASS: "inactive"
- COMPOUND: "Cc1ccc(Nc2nc(=O)[nH]c(=O)[nH]2)cc1N=[N+]=[N-]"
  CLASS: "inactive"
- COMPOUND: "CC1=C[P+](Cc2ccccc2)(c2ccccc2)CC1 (centres undefined)"
  CLASS: "inactive"
- COMPOUND: "CC(C)=CC(=O)OC1C2C(C)=CC(O)C(O)C2(C)C2C3(O)OCC24C(CC(=O)OC14)C(C)C3O (centres undefined)"
  CLASS: "active"
- COMPOUND: "CCCO/S(=N\\S(=O)(=O)c1ccccc1)c1ccccc1[N+](=O)[O-] (centres undefined)"
  CLASS: "inactive"
- COMPOUND: "NC(=O)c1ccccc1NC(=O)C(=O)C(C(=O)c1ccc2ccccc2c1)C1OC(=O)c2ccccc21 (centres undefined)"
  CLASS: "inactive"
- COMPOUND: "O=c1[nH]c(=O)n(C2OC(COP(=O)(O)OP(=O)(O)O)C(O)C2O)cc1F (centres undefined)"
  CLASS: "inactive"
